- procedureText: Unbound brain-to-plasma concentration ratio (Kp,uu,brain), BBB net flux, from Kp,brain, Vu,brain and fu,plasma
- assayContext: Kp,brain corrected for brain tissue uptake (Vu,brain from brain slice method) and plasma protein binding (fu,plasma)
readoutName: Kp uu
Please respond with just the number, no unit label.

// Kp uu value for NCC1(CC(=O)O)CCCCC1 : 0.14

###

What Vu,brain was measured for each of the following?
- procedureText: Brain slice method, unbound volume of distribution in the brain (rat)
- Assay type: in vitro ADME
- assayContext: SD rat brain slices, 5 h incubation at 37°C; mean (standard deviation)

// Vu,brain value for COc1ccc2c(c1)c(CC(=O)O)c(C)n2C(=O)c1ccc(Cl)cc1 [Indomethacin] : 14.1 (1.8) ml·g brain^-1

// Vu,brain value for CC(=O)O[C@@]12CO[C@@H]1C[C@H](O)[C@@]1(C)C(=O)[C@H](O)C3=C(C)[C@@H](OC(=O)[C@H](O)[C@@H](NC(=O)OC(C)(C)C)c4ccccc4)C[C@@](O)([C@@H](OC(=O)c4ccccc4)[C@H]21)C3(C)C [Docetaxel] : 777 (217) ml·g brain^-1

// Vu,brain value for CSc1ccc2c(c1)N(CCC1CCCCN1C)c1ccccc1S2 (centres unmarked) [Thioridazine] : 2650 (232) ml·g brain^-1

// Vu,brain value for NCC1(CC(=O)O)CCCCC1 [Gabapentin] : 4.49 (0.29) ml·g brain^-1

// Vu,brain value for Fc1ccc([C@@H]2CCNC[C@H]2COc2ccc3c(c2)OCO3)cc1 [Paroxetine] : 714 (72) ml·g brain^-1

###

- procedureText: Brain slice method, unbound volume of distribution in the brain (mouse)
- assayContext: NMRI mouse brain slices, 5 h incubation at 37°C; mean (standard deviation)
What Vu,brain was measured for each of the following?

// Vu,brain value for NCC1(CC(=O)O)CCCCC1 : 4.22 (0.93) ml·g brain^-1

// Vu,brain value for COc1ccc2c(c1)c(CC(=O)O)c(C)n2C(=O)c1ccc(Cl)cc1 : 12.0 (1.8) ml·g brain^-1

// Vu,brain value for CSc1ccc2c(c1)N(CCC1CCCCN1C)c1ccccc1S2 (centres unmarked) : 1930 (170) ml·g brain^-1

// Vu,brain value for CC(=O)O[C@@]12CO[C@@H]1C[C@H](O)[C@@]1(C)C(=O)[C@H](O)C3=C(C)[C@@H](OC(=O)[C@H](O)[C@@H](NC(=O)OC(C)(C)C)c4ccccc4)C[C@@](O)([C@@H](OC(=O)c4ccccc4)[C@H]21)C3(C)C : 796 (177) ml·g brain^-1

// Vu,brain value for Fc1ccc([C@@H]2CCNC[C@H]2COc2ccc3c(c2)OCO3)cc1 : 596 (97) ml·g brain^-1
